system: PRC2-EED-I363M (EED/EZH2/SUZ12) (Homo sapiens, UniProt O75530+Q15910, I363M)
Construct: the full lengths of two components of the PRC2 complex, EED(1–441) and EZH2(1–751); EED(1–441) and EZH2(1–751) were cloned into pFastBac-Dual; made in house; host or cells: Sf9 insect cells (baculovirus co-infection)
Sequence (O75530 whole entry I363M): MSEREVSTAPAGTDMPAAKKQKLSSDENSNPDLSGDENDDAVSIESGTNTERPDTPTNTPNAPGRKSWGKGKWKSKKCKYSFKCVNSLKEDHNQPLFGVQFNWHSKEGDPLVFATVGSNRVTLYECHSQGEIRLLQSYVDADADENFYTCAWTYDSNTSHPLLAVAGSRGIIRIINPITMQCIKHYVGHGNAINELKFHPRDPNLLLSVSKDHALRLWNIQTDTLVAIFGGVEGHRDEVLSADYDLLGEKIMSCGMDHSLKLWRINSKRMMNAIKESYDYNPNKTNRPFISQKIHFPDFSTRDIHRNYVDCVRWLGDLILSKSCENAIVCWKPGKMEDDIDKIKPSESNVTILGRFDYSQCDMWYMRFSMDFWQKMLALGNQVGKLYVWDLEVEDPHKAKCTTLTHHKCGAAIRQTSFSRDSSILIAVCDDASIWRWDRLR
Sequence (Q15910 1-751 isoform Q15910-2, stated change not applied): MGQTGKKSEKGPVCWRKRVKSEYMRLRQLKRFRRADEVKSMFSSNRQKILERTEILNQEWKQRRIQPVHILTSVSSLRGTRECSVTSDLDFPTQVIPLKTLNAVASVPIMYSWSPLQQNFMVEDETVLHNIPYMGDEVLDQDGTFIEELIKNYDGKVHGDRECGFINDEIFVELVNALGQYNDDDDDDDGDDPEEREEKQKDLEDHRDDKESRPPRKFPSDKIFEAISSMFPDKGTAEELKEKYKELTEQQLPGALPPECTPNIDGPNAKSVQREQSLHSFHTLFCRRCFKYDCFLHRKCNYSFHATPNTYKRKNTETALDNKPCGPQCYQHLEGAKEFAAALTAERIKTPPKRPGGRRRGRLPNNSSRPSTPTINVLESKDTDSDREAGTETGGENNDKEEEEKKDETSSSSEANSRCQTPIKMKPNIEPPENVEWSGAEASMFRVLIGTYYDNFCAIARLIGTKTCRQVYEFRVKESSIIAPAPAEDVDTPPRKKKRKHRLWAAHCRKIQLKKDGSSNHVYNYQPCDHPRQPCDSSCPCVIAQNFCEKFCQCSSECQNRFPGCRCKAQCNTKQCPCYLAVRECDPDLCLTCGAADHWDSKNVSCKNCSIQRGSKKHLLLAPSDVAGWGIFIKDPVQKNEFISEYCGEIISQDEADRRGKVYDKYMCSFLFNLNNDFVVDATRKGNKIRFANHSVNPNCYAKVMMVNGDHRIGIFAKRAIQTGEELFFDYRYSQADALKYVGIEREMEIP
Sequence (Q15022 whole entry partner): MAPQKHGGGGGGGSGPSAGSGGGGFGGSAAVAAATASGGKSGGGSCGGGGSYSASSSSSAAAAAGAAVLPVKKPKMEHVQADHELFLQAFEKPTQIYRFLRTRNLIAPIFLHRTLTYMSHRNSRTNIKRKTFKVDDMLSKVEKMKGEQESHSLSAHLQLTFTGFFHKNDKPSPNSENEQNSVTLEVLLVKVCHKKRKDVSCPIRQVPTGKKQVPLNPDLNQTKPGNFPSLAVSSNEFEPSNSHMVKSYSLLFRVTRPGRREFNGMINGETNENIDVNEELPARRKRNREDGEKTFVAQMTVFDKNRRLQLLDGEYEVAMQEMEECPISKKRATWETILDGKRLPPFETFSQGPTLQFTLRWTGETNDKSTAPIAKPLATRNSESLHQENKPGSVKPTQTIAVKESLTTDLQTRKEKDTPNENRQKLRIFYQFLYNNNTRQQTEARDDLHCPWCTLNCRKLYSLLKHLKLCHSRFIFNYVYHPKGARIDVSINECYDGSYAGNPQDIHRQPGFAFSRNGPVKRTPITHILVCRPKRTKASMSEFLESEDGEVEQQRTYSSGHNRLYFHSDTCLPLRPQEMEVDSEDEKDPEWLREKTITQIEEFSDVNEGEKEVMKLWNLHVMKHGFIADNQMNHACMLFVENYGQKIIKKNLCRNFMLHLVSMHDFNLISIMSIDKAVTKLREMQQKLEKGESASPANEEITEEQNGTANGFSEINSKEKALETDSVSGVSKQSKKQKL
method notes: Methyltransferase scintillation proximity assay, H3 (21-44) peptide substrate
Type: biochemical
conditions used: H3 peptide substrate, compound up to 100 µM, normalized to activity without compound
Where a SMILES comes first, the peptide text is derived from it. [ ]: non-standard residue; d: D form. Lys(Me3) = C[N+](C)(C)CCCC[C@H](N)C(=O)O
measured endpoint: effect on catalytic activity of PRC2-EED-I363M

compound	recorded result
CC(C)C[C@H](NC(=O)[C@H](Cc1ccccc1)NC(=O)[C@H](CCCC[N+](C)(C)C)NC(=O)[C@H](CCCNC(=N)N)NC(=O)[C@@H]1CCCN1)C(N)=O [compound 1] (H-PR[Lys(Me3)]FL-NH2)	significant increase
CC(C)C[C@H](NC(=O)[C@H](Cc1ccccc1)NC(=O)[C@H](CCCC[N+](C)(C)C)NC(=O)[C@H](CCCCN)NC(=O)[C@@H]1CCCN1)C(N)=O [compound 2] (H-PK[Lys(Me3)]FL-NH2)	significant increase
